- Experimental target: T1, MOTH domain of human Otoraplin (18-128) (human, UniProt Q9NRC9 18-128, [U-15N]-enriched)
- T1 sequence (looked up): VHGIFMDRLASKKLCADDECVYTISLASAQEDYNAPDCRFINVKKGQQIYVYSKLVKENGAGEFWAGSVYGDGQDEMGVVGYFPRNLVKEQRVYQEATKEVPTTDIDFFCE
- Test protocol: NMR titration
Recorded endpoint: Kd (mM)
Answers are plain numbers, in mM.

Q) Give its Kd value. Item: VPPPVPPRRR (peptide, UniProt Q07889 1149-1158, looked up) [class II PPII helix peptide SOS1 (1149-1158)]
A) 1.3
